- Test system: isolated rat aortae
- ASSAY COMMENT: Vasorelaxing effect on the isolated rat aortae (Referential Example 1)-1)
- CONDITION CONTEXT: inhibition of contraction induced by 40 mM KCl
pIC50: −log10 of the molar value.
REPORTED PROPERTY: pIC50

The following compounds have reported results that may help.
- COMPOUND: "COc1ccc(CN=C(NC#N)c2cccnc2)cc1 [(19)]"
  pIC50: 4.43
- COMPOUND: "N#CNC(=NCCc1ccc(Cl)cc1)c1ccccn1 [(10)]"
  pIC50: 4.40
- COMPOUND: "N#CNC(=NCCc1ccc(Cl)cc1)c1ccncc1 [(47)]"
  pIC50: 4.40
- COMPOUND: "N#CNC(=NCc1cccc(OCc2ccccc2)c1)c1cccnc1 [(26)]"
  pIC50: 4.64
- COMPOUND: "N#CNC(=NCC(O[N+](=O)[O-])c1ccc([N+](=O)[O-])cc1)c1cccnc1 (stereo not shown) [(32)]"
  pIC50: 4.11

I. N#CNC(=NCCO[N+](=O)[O-])c1ccncc1 [(41)]
II. N#CN=C(N)c1ccncc1 [N-cyano-4-pyridine-carboxyimidamide, reference compound]
III. N#CNC(=Nc1ccccc1)c1ccccn1 [(4)]
IV. N#CNC(=NCc1ccc(C(F)(F)F)cc1)c1ccccn1 [(8)]
In: Rank the 4 compounds: largest pIC50 first, smallest last. Put the labels in the requested order and write them down.
Out: I, III, IV, II
(I: 4.92, III: 4.51, IV: 4.24, II: 3.74)

----------
- Tested on: isolated rat aortae
- ASSAY COMMENT: Vasorelaxing effect on the isolated rat aortae (Referential Example 1)-1)
- CONDITION CONTEXT: inhibition of contraction induced by 40 mM KCl
pIC50: −log10 of the molar value.
REPORTED PROPERTY: pIC50

The following compounds have reported results that may help.
- COMPOUND: "CC(C)(C)CCN=C(NC#N)c1cccnc1 [(15)]"
  pIC50: 4.02
- COMPOUND: "N#CNC(=NCCc1ccccc1)c1cccnc1 [(27)]"
  pIC50: 4.40
- COMPOUND: "Cc1ccc(CCN=C(NC#N)c2ccccn2)cc1 [(9)]"
  pIC50: 4.14
- COMPOUND: "CC(N=C(NC#N)c1ccccn1)C(C)(C)C (stereo not shown) [(3)]"
  pIC50: 4.31
- COMPOUND: "N#CNC(=NCC(O[N+](=O)[O-])c1ccc([N+](=O)[O-])cc1)c1ccncc1 (stereo not shown) [(50)]"
  pIC50: 4.85

1. N#CNC(=NCc1ccc(Cl)c(Cl)c1)c1ccncc1 [(44)]
2. CN(C)c1ccc(CN=C(NC#N)c2cccnc2)cc1 [Compound (20)]
In: Out of 1 and 2 , name the one with the higher pIC50. State the label of the item chosen.
Out: 1
(1: 4.72, 2: 4.11)

----------
- Test system: isolated rat aortae
- ASSAY COMMENT: Vasorelaxing effect on the isolated rat aortae (Referential Example 1)-1)
- CONDITION CONTEXT: inhibition of contraction induced by 40 mM KCl
pIC50: −log10 of the molar value.
REPORTED PROPERTY: pIC50

The following compounds have reported results that may help.
- COMPOUND: "N#CNC(=NCCCO[N+](=O)[O-])c1cccnc1"
  pIC50: 4.70
- COMPOUND: "N#CNC(=NCc1cccs1)c1ccccn1"
  pIC50: 4.62
- COMPOUND: "N#CNC(=NCC(OCc1ccccc1)c1ccccc1)c1cccnc1 (centres unmarked)"
  pIC50: 4.17
- COMPOUND: "N#CNC(=NCCc1ccccc1Cl)c1cccnc1"
  pIC50: 4.42
- COMPOUND: "N#CNC(=NCCc1ccc(NCc2ccccc2)cc1)c1cccnc1"
  pIC50: 4.80
- COMPOUND: "N#CNC(=NCCSc1ccccc1)c1ccncc1"
  pIC50: 4.21
- COMPOUND: "N#CNC(=NCCO[N+](=O)[O-])c1cccnc1"
  pIC50: 5.29

I. N#CNC(=NCCO[N+](=O)[O-])c1ccccn1
II. N#CNC(=NCCCc1ccccc1)c1cccnc1
III. CSc1ccc(CN=C(NC#N)c2ccncc2)cc1
IV. Cc1ccc(CN=C(NC#N)c2cccnc2)cc1
In: Rank the 4 compounds: largest pIC50 first, smallest last. Put the labels in the requested order and write them down.
Out: I, IV, III, II
(I: 5.34, IV: 4.66, III: 4.31, II: 4.02)
